CC50 listing for selected compounds.
assay: Cytotoxicity determination by CCK-8; type: cell-based; details: mouse, RAW264.7 macrophage cells, RAW264.7 cells
measurement.label: CC50 (µM)

[
  {
    "compound": "COc1cc(/C=C/C(=O)N2C(=O)CN(C)C2=O)ccc1OC(C)=O [Compound 5]",
    "observed": 232
  },
  {
    "compound": "CN1CC(=O)N(C(=O)C=Cc2ccccc2)C1=O [Compound 1]",
    "observed": 264
  },
  {
    "compound": "CN1CC(=O)N(C(=O)/C=C/c2ccc3c(c2)OCO3)C1=O [Compound 3]",
    "observed": 184
  },
  {
    "compound": "CN1CC(=O)N(C(=O)/C=C/c2ccco2)C1=O [Compound 2]",
    "observed": 329
  },
  {
    "compound": "CC(=O)Oc1ccc(/C=C/C(=O)N2C(=O)CN(C)C2=O)cc1 [Compound 4]",
    "observed": 302
  }
]
